FYI, the data here is from paper PMC5540273.

test system: RAF1; settings: concentration: 1 μM, replicates: in singlicate; n = 1;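 also: KINOMEscan kinase panel screen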
readoutKind: %Inh (%)
Provide the reading as a plain figure in %.

# compoundStructure, %Inh [%]
rows = [
    ("Cc1cccc(-c2nc(-c3ccc(S(C)(=O)=O)cc3)sc2-c2ccnc(NCCc3ccccc3)c2)c1", 93.4),
    ("CN1C(=O)C(Nc2ccc(Cl)c(C(=O)O)c2)=C(c2ccc(Cl)cc2)C1=O", 0),
    ("Cl.c1ccc(-c2n[nH]cc2-c2ccnc(-c3ccc(CN4CCOCC4)cc3)c2)nc1", 37),
]

Kindly consider the entry below.
Q: Tell me reported %Inh for `CN(C)CCN(C)C(=O)c1cc(-c2ccncc2)c(-c2ccc(Cl)c(O)c2)o1.Cl.Cl` , tested with RAF1.
A: 87

====

system: TBK1; conditions: concentration: 1 μM, replicates: in singlicate; n = 1
Reported %Inh is given for each of the following molecules.
Provide the reading as a plain figure in %.

Worked cases, answers included:
# molecule, %Inh, %
records = [
    ("Cn1ccc2ncnc(Oc3ccc(Nc4nc5ccccc5[nH]4)cc3)c21", 0),
    ("Cl.O=C(Nc1cccc(-c2nn3ncccc3c2-c2ccnc(Nc3cccnc3)n2)c1)c1c(F)cccc1F [GSK312879]", 0),
    ("COc1cc2ncn(-c3cc(OCC4CCCO4)c(C(N)=O)s3)c2cc1OC (centres unmarked) [GSK204607]", 23),
    ("O=S(=O)(c1ccc(-c2ccnc3[nH]ccc23)cc1)N1CCCC1 [GSK846226]", 33),
]

Kindly consider the entry below.
Q: Would you mind telling me what %Inh value was observed for COc1ccc2nc(-c3cccc(C)n3)nc(Nc3ccncc3)c2c1 [GSK204919] ?
A: 3

====

Reported %Inh is given for each of the following compounds.
tested on: PIK3CB; settings: concentration: 1 μM, replicates: in singlicate; n = 1
Provide the reading as a plain figure in %.

Q: Would you mind telling me what %Inh value was observed for `Cn1ccc2ncnc(Oc3ccc(NC(=O)Nc4ccccc4)cc3)c21` ?
A: 16

Q: Follow-up entry: `COc1ccc(C2=C(Nc3cccc(C(=O)O)c3)C(=O)NC2=O)cc1`
A: 40

Q: Follow-up entry: `Cc1cccc(-c2nc(Nc3cccc(C(N)=O)c3)c3ccccc3n2)n1`
A: 0

====

test system: BLK; settings: concentration: 1 μM, replicates: in singlicate; n = 1
readoutKind: %Inh (%)
Provide the reading as a plain figure in %.

Worked cases, answers included:
# compound, systemUnderTest, unitString, %Inh
measured = [
    ("COc1cc(Nc2nccc(N3CCC(NC(=O)Nc4cc(C)ccc4C)C3)n2)cc(OC)c1OC (stereo not shown)", "BLK", "%", 10),
    ("CS(=O)(=O)c1ccc(-c2nc3n(c2-c2ccncc2)CCC3)cc1", "BLK", "%", 9),
    ("CC1=C(C(=O)Nc2cc3cn[nH]c3cc2F)C(c2ccc(C(F)(F)F)cc2)CC(=O)N1 (stereo not shown)", "BLK", "%", 42),
]

Kindly consider the entry below.
Q: Would you mind telling me what %Inh value was observed for `CCn1c(-c2cccnc2O)nc2cnccc21` ?
A: 0

====

test system: TSSK3; settings: concentration: 1 μM, replicates: in singlicate; n = 1
Label yes when %Inh is at or above 20%; otherwise label no.

# compound, classLabel
data = [
    ("CS(=O)(=O)c1ccc(-c2c(-c3ncn[nH]3)sc(N3CCOCC3)c2C#N)cc1", "no"),
    ("COc1cc2ncn(-c3cc(OCC4CCCO4)c(C(N)=O)s3)c2cc1OC (centres unmarked)", "no"),
    ("O=c1cc(N2CCOCC2)nc2n(Cc3cccc(Cl)c3Cl)ccn12", "yes"),
    ("O=C(Nc1ccc2c(c1)OCO2)NC1CCN(c2ccnc(Nc3ccc(F)cc3)n2)C1 (centres unmarked)", "no"),
]

Here is another compound to look at.
Q: hey, is %Inh for this one >= 20%? `O=C(Nc1n[nH]c2cc(-c3cccc(F)c3F)ccc12)C1CC1`
A: no

====

tested on: YANK3; construct: gene STK32C; settings: concentration: 1 μM, replicates: in singlicate; n = 1
readoutKind: %Inh (%)
Provide the reading as a plain figure in %.

Worked cases, answers included:
# compound, %Inh / %
data = [
    ("Cc1cc(N2Cc3ccccc3C2)nc(Nc2ccc(S(=O)(=O)N3CCOCC3)cc2)n1.Cl [GSK1669917]", 0),
    ("Cc1ccc(NC(=O)Nc2cc(C(C)(C)C)nn2-c2ccccc2)cc1 [GSK1014915]", 7),
    ("Cc1csc(-c2nc(Nc3ccncc3)c3ccccc3n2)n1 [GW869640]", 43),
    ("Cc1cccc(-c2cc(Nc3ccncc3)c3ccccc3n2)n1 [GSK223675]", 0),
    ("Cc1ccc(NC(=O)Nc2cccc(Cl)c2)cc1-c1ccc(C(=O)Nc2ccncc2)cc1 [GSK1398468]", 0),
]

Q: Would you mind telling me what %Inh value was observed for `COC(=O)c1c(-c2ccccc2)c2cc(OC)ccc2c(=O)n1Cc1ccccc1` ?
A: 0

Q: Follow-up entry: O=S(=O)(c1ccc(-c2ccnc3[nH]ccc23)cc1)N1CCCC1 [GSK846226]
A: 0

Q: Follow-up entry: Cc1cccc(-c2nc(Nc3cccc(C(N)=O)c3)c3ccccc3n2)n1 [GW876019]
A: 0

Q: Follow-up entry: Cc1c(Cn2ccn3c(=O)cc(N4CCOCC4)nc23)cccc1C(F)(F)F [GSK2289044]
A: 31

====

Reported %Inh is given for each of the following molecules.
system: RIOK3; conditions: concentration: 1 μM, replicates: in singlicate; n = 1
Provide the reading as a plain figure in %.

Worked cases, answers included:
# molecule, readoutKind, unitString, reportedResult
data = [
    ("Cc1cccc(-c2nc(Nc3ccc4[nH]ncc4c3)c3ccccc3n2)n1 [GW857175]", "%Inh", "%", 29),
    ("Fc1cccc(COc2nnc(-c3ccc4c(c3)CCO4)o2)c1", "%Inh", "%", 0),
    ("O=C(Nc1ccc2c(c1)OCO2)NC1CCN(c2ccnc(Nc3ccc(F)cc3)n2)C1 (stereo not shown) [GSK1379724]", "%Inh", "%", 5),
]

Q: Would you mind telling me what %Inh value was observed for Cc1c(Cn2ccn3c(=O)cc(N4CCOCC4)nc23)cccc1C(F)(F)F [GSK2289044] ?
A: 5

Q: Follow-up entry: Cl.Oc1ccc(-c2nc(-c3ccccc3)[nH]c2-c2ccncc2)cc1 [SB-428218]
A: 0

Q: Follow-up entry: Cc1ccc(C(=O)Nc2ccc(Nc3ccnc4cc(-c5ccccn5)ccc34)cc2O)cc1.Cl [GW440146]
A: 81

====

Reported %Inh is given for each of the following molecules.
system: EPHB3; conditions: concentration: 1 μM, replicates: in singlicate; n = 1
Provide the reading as a plain figure in %.

# molecule, unitString, reportedResult
measured = [
    ("COc1cc2ncnc(Nc3ccc4nc(-c5ccccc5)[nH]c4c3)c2cc1OC.Cl", "%", 3),
    ("Cc1nnc(-c2ccc3occ(-c4ccc(S(C)=O)cc4)c3c2)[nH]1 (stereo not shown)", "%", 17),
    ("CC(C)(C)c1ccc(C(=O)Nc2cn3cc(Cl)ccc3n2)cc1", "%", 0),
    ("CN1C(=O)C(Nc2ccc(Cl)c(C(=O)O)c2)=C(c2ccc(Cl)cc2)C1=O", "%", 7),
    ("O=C(Nc1n[nH]c2nc(-c3nccs3)c(Br)cc12)C1CC1", "%", 29),
    ("COc1cc2ncn(-c3cc(OCC4CCCO4)c(C(N)=O)s3)c2cc1OC (stereo not shown)", "%", 0),
]

Q: Would you mind telling me what %Inh value was observed for `Fc1cc(Cl)ccc1Nc1ccnc2cc(-c3ccc(CN4CCCCC4)o3)ccc12` ?
A: 0

Q: Follow-up entry: `CS(=O)(=O)c1ccc(-c2nc3n(c2-c2ccncc2)CCC3)cc1`
A: 14

Q: Follow-up entry: O=C(Nc1ccc2c(c1)OCO2)NC1CCN(c2ccnc(Nc3ccc(F)cc3)n2)C1 (stereo not shown)
A: 16

Q: Follow-up entry: `Cc1ccc(NC(=O)Nc2cccc(Cl)c2)cc1-c1ccc(C(=O)Nc2ccncc2)cc1`
A: 4

====

Reported %Inh is given for each of the following molecules.
test system: MARK2; settings: concentration: 1 μM, replicates: in singlicate; n = 1
Your answer should be a number followed by the unit of measure.

# molecule, systemUnderTest, %Inh
data = [
    ("CC1=C(C(=O)Nc2cc3cn[nH]c3cc2F)C(c2ccc(C(F)(F)F)cc2)CC(=O)N1 (stereo not drawn)", "MARK2", "0%"),
    ("Cc1ccccc1-n1cnc2c(N)ncnc21", "MARK2", "0%"),
    ("COc1ccccc1-c1ccc2c(NC(=O)C3CC3)n[nH]c2n1", "MARK2", "0%"),
    ("Cc1c(Cn2ccn3c(=O)cc(N4CCOCC4)nc23)cccc1C(F)(F)F", "MARK2", "5%"),
    ("Cl.NC(=O)c1cccc(Nc2nccc(Nc3ccc(Oc4cccc(Cl)c4)c(Cl)c3)n2)c1", "MARK2", "0%"),
    ("Cc1cccc(-c2nc(-c3ccc(S(C)(=O)=O)cc3)sc2-c2ccnc(NCCc3ccccc3)c2)c1", "MARK2", "11%"),
    ("O=C(Nc1n[nH]c2nc(-c3nccs3)c(Br)cc12)C1CCCC1", "MARK2", "0%"),
    ("Cc1ccc(NC(=O)Nc2cccc(Cl)c2)cc1-c1ccc(C(=O)Nc2ccncc2)cc1", "MARK2", "0%"),
    ("Cc1cc(N2Cc3ccccc3C2)nc(Nc2ccc(S(=O)(=O)N3CCOCC3)cc2)n1.Cl", "MARK2", "0%"),
    ("CSc1nn2c(=O)cc(N3CCOCC3)nc2n1Cc1cccc(C(F)(F)F)c1C", "MARK2", "0%"),
]

Q: Would you mind telling me what %Inh value was observed for `COC(=O)c1c(-c2ccccc2)c2cc(C(=O)O)ccc2c(=O)n1Cc1ccccc1` ?
A: 3%

Q: Follow-up entry: `Fc1cccc(COc2nnc(-c3ccc4c(c3)CCO4)o2)c1`
A: 24%

Q: Follow-up entry: `C[C@@H]1CCCCN1c1cc(-c2ccc3c(N)n[nH]c3c2)nc(N)n1`
A: 0%
